system: OVCAR-3 ovarian; assay: NCI-60 one-dose screen, 48 h; settings: 10 µM unless noted
The panel holds about 83,000 compounds, 20% with a hit somewhere; the sample as a whole holds those more often. The source made the active and inactive calls. How the source made its calls: active means growth percent below 10; inactive means the rest.
Outcome codes: 1 for active, -1 for inactive

INSERT INTO measurements (compound, target_entity, classification) VALUES
  ('O=C(N/N=C/C=C/c1ccc([N+](=O)[O-])o1)c1cc2ccccc2cc1O', 'OVCAR-3 ovarian', 1),
  ('COc1nc(N(C)O)nc(N(C)O)n1', 'OVCAR-3 ovarian', 1),
  ('Cc1c(O)cc(-c2cnc(N/N=C\c3ccc(Cl)cc3)s2)c(O)c1C', 'OVCAR-3 ovarian', -1),
  ('Cc1nc2ccccc2c(/C=C/c2ccc(Cl)cc2)c1C(=O)/C=C/c1ccc(F)cc1', 'OVCAR-3 ovarian', 1),
  ('Cc1ccc(NS(=O)(=O)c2ccc3c(c2)C(=O)CC(c2ccc(C(=O)C(C)C)cc2)N3)cc1C (stereo not drawn)', 'OVCAR-3 ovarian', -1),
  ('O=C(Nc1ccc(Cl)cc1)Nc1ccc(Cl)c(C(F)(F)F)c1', 'OVCAR-3 ovarian', 1),
  ('C=C(C)[C@@H]1CC[C@]2(C(=O)NC3CCCCC3)CC[C@]3(C)[C@H](CC[C@@H]4[C@@]5(C)CCCNC(C)(C)[C@@H]5CC[C@]43C)[C@@H]12', 'OVCAR-3 ovarian', -1),
  ('Cc1c(C(=O)NC(Cc2ccccc2)C(O)C(=O)NCc2ccc(F)cc2)[nH]c2ccccc2c1=O (stereo not drawn)', 'OVCAR-3 ovarian', -1),
  ('Cn1cc(-c2csc(-c3ccccc3)n2)c2cccnc21', 'OVCAR-3 ovarian', 1),
  ('CC(C)(C)OC(=O)Nc1ccc2c(c1)C(NC(=O)Nc1cccc(C#N)c1)CC(C)(C)O2 (stereo not drawn)', 'OVCAR-3 ovarian', -1),
  ('COc1ccc(/C=C/c2c(C(=O)/C=C/c3cccs3)c(C)nc3ccccc23)cc1', 'OVCAR-3 ovarian', -1),
  ('C#Cc1cccc(NC(=O)c2ccc(NC(=O)CCl)cc2)c1', 'OVCAR-3 ovarian', 1),
  ('C=CCn1c(C)nc2cc(Nc3nc(Cl)nc4ccccc34)ccc21', 'OVCAR-3 ovarian', -1),
  ('O=C(NCCc1ccc(O)c(O)c1)C12CC3CC(CC(C3)C1)C2', 'OVCAR-3 ovarian', -1),
  ('C[C@@H]1N=C(c2ccc3ccccc3n2)Nc2nc3ccccn3c2C1=O', 'OVCAR-3 ovarian', -1),
  ('OC(COc1ccccc1Cl)COc1ccccc1Cl', 'OVCAR-3 ovarian', -1),
  ('c1ccc(Nc2nc(-c3ccccn3)cs2)nc1', 'OVCAR-3 ovarian', -1),
  ('NC(N)=NN=C(c1ccccc1)c1ccccc1', 'OVCAR-3 ovarian', -1),
  ('COc1cccc(-c2nn(-c3ccccc3)cc2-c2ccnc(NCCCNC(=O)c3ccc(F)cc3)c2)c1', 'OVCAR-3 ovarian', -1),
  ('CCCCCCCCCCCCCCCCCCOc1ccccc1CC(=O)OCCC[N+](C)(C)C', 'OVCAR-3 ovarian', -1),
  ('COc1cc2ncn3c(=O)c4c5c(sc4nc3c2cc1OC)CCCC5', 'OVCAR-3 ovarian', -1),
  ('CCCCCCN(CCCCCC)c1ccc(/C=C2/SC(=O)N(c3nc(N4CCCC4)nc(N4CCCC4)n3)C2=O)c(C)c1', 'OVCAR-3 ovarian', -1),
  ('CC1(C)CC[C@]2(C(=O)N3CCOCC3)CC[C@]3(C)C(=CC[C@@H]4[C@@]5(C)CC[C@H](OC(=O)c6cccnc6)C(C)(C)[C@@H]5CC[C@]43C)[C@@H]2C1', 'OVCAR-3 ovarian', -1),
  ('CCOc1ccccc1-n1c(CN2CCN(C(=O)COc3ccc(CNCCCCCCN4C5CCCC4CC(OC(=O)Nc4cc(C)ccc4OC)C5)cc3)CC2)nc2ccccc2c1=O (stereo not drawn)', 'OVCAR-3 ovarian', 1),
  ('CCOC(=O)c1c2ncccc2n2c(=O)n(-c3ccccc3C)nnc12', 'OVCAR-3 ovarian', -1),
  ('COc1cc(OC)cc(C2CC(=O)Nc3c2c(C)nn3-c2nc3ccccc3[nH]2)c1 (stereo not drawn)', 'OVCAR-3 ovarian', 1),
  ('O=C(c1ccccc1)c1c(/C=C/c2ccc(Cl)cc2)nc2ccccc2c1/C=C/c1cccs1', 'OVCAR-3 ovarian', -1),
  ('CNc1ccc(NC)c2c1C(=O)c1ccccc1C2=O', 'OVCAR-3 ovarian', -1);
